Read-out: Lipoprotein lipase (LPL), LPL (gene 4023)
Experiment: LTEA_HepaRG_LPL: Life Technologies and Expression Analysis (LTEA) Assay for Lipoprotein lipase (LPL) using HepaRG (AID 2283515)
Settings: mRNA level, 48 h; actives raise or lower the signal
Method: LTEA_HepaRG is a cell based, multiplexed-readout assay that uses HepaRG, a human liver cell line, with measurements taken at 48 hours after chemical dosing on a 96-well plate.LTEA_HepaRG_LPL is one of 102 assay component(s) measured in the LTEA HepaRG cell culture assay. It is a marker of Steatosis.Data from the assay component LTEA_HepaRG_LPL was analyzed into 1 endpoint. […]
Activity calls are given as the source filed them. The calls were made as follows: active = hit-call score of the fitted dose curve at least 0.9, where 1 is the maximum; inactive = score below 0.9.
The categories you may choose from are active, inactive

COc1nn(CSP(=S)(OC)OC)c(=O)s1
inactive
CC1(c2ccc(Oc3ccccc3)cc2)OC(=O)N(Nc2ccccc2)C1=O (stereo unspecified)
active
O=C(NC(=O)c1c(F)cccc1F)Nc1ccc(OC(F)(F)C(F)OC(F)(F)F)c(Cl)c1 (stereo unspecified)
inactive
COP(=O)(OC)OC=C(Cl)Cl
inactive
O=[N+]([O-])c1c(Cl)c(Cl)c(Cl)c(Cl)c1Cl
inactive
CCC(C)Nc1c([N+](=O)[O-])cc(C(C)(C)C)cc1[N+](=O)[O-] (stereo unspecified)
inactive
CN1CSC(=S)N(C)C1
inactive
CNC(=O)/C=C(\C)OP(=O)(OC)OC
inactive
CC(C)OC(=O)Nc1cccc(Cl)c1
inactive
CC(C)N(C(=O)COc1nnc(C(F)(F)F)s1)c1ccc(F)cc1
inactive

Ask: What call does the record list for CNC(=O)Oc1cccc(N=CN(C)C)c1 ?
Reply: inactive

Ask: Next entry: N#CN
Reply: inactive

Ask: Next entry: CCc1ccc(C(=O)NN(C(=O)c2cc(C)cc(C)c2)C(C)(C)C)cc1
Reply: inactive

* * *

Read-out: Fatty acid synthase (Homo sapiens)
Assay: LTEA_HepaRG_FASN: Life Technologies and Expression Analysis (LTEA) Assay for Fatty Acid Synthase (FASN) using HepaRG (AID 2283448)
Details: mRNA level, 48 h; actives raise or lower the signal
Calls of active or inactive are those of the source. Rule for the calls: active = hit-call score of the fitted dose curve at least 0.9, where 1 is the maximum; inactive = score below 0.9.
The categories you may choose from are active, inactive

Illustrative cases are given below, each with its answer.
CNC(=O)Oc1ccccc1OC(C)C
inactive
O=C(Nc1ccccc1)Nc1cnns1
active
CCCN(CCOc1c(Cl)cc(Cl)cc1Cl)C(=O)n1ccnc1
active
CCC(C)Nc1c([N+](=O)[O-])cc(C(C)(C)C)cc1[N+](=O)[O-] (configuration not stated)
inactive
CNC(=O)Oc1cccc(N=CN(C)C)c1
inactive

Ask: What call does the record list for N#CN ?
Reply: inactive

Ask: Next entry: CCOCN(C(=O)CCl)c1c(C)cccc1CC
Reply: active

Ask: Next entry: COc1nn(CSP(=S)(OC)OC)c(=O)s1
Reply: inactive

Ask: Next entry: CC(C)N(C(=O)COc1nnc(C(F)(F)F)s1)c1ccc(F)cc1
Reply: inactive

Ask: Next entry: CCC(C)(C)C(=O)OC1=C(c2ccc(Cl)cc2Cl)C(=O)OC12CCCCC2
Reply: active

Ask: Next entry: O=C1c2ccccc2C(=O)N1SC(Cl)(Cl)Cl
Reply: inactive

Ask: Next entry: ClC1C(Cl)C(Cl)C(Cl)C(Cl)C1Cl (configuration not stated)
Reply: inactive

Ask: Next entry: COP(=O)(OC)OC=C(Cl)Cl
Reply: inactive

Ask: Next entry: CC(C)OC(=O)Nc1cccc(Cl)c1
Reply: inactive

Ask: Next entry: O=S1OCC2C(CO1)C1(Cl)C(Cl)=C(Cl)C2(Cl)C1(Cl)Cl (configuration not stated)
Reply: inactive

Ask: Next entry: O=C(O)COc1ccc(Cl)cc1Cl
Reply: inactive

Ask: Next entry: N#Cc1c(Cl)c(Cl)c(Cl)c(C#N)c1Cl
Reply: active

Measured values drawn from PubChem BioAssay (EPA / NIEHS) for this set.
